Every entry's value here was drawn from ChEMBL document CHEMBL3272317.

assay: Octanol-water partition coefficient, log P of the compound
Recorded endpoint: logP
Give bare numbers.

>  <Compound>
CCCCCl [BUTYL CHLORIDE]

>  <logP>
2.39

$$$$
>  <Compound>
OC1CCCCC1

>  <logP>
1.23

$$$$
>  <Compound>
CCCc1ccccc1

>  <logP>
3.68

$$$$
>  <Compound>
CC(C)(C)CO

>  <logP>
1.36

$$$$
>  <Compound>
CCC(C)=O

>  <logP>
0.29

$$$$
>  <Compound>
Nc1ccccc1

>  <logP>
0.9

$$$$

Now look at this entry.
Quick one: give measured logP for CCC#N
0.16
